conditions: human, hek293, 0.1 µM;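 also: equilibrium dialysis of compound in HEK293 cell homogenate, free drug quantified by UPLC-MS/MS, Fu is the unbound fraction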
Property Measured: Fu

[[record]]
compound = "CO[C@H]1/C=C/O[C@@]2(C)Oc3c(C)c(O)c4c(O)c(c(/C=N/N5CCN(C)CC5)c(O)c4c3C2=O)NC(=O)/C(C)=C\\C=C\\[C@H](C)[C@H](O)[C@@H](C)[C@@H](O)[C@@H](C)[C@H](OC(C)=O)[C@@H]1C [RIFAMPIN]"
property_measured = "Fu"
numeric_readout = 0.62

[[record]]
compound = "CC(=O)N1CCN(c2ccc(OCC3COC(Cn4ccnc4)(c4ccc(Cl)cc4Cl)O3)cc2)CC1 (stereo not drawn) [KETOCONAZOLE]"
property_measured = "Fu"
numeric_readout = 0.39

[[record]]
compound = "CC(C)(C)NC(=O)[C@@H]1C[C@@H]2CCCC[C@@H]2CN1C[C@@H](O)[C@H](Cc1ccccc1)NC(=O)[C@H](CC(N)=O)NC(=O)c1ccc2ccccc2n1"
property_measured = "Fu"
numeric_readout = 0.17


====

Listed here are compounds together with their documented Fu.
details: human, hek293, 0.1 µM
Property Measured: Fu

[[record]]
compound = "CCN(CC)CCNC(=O)c1cc(Cl)c(N)cc1OC [METOCLOPRAMIDE]"
numeric_readout = 0.95

[[record]]
compound = "CNC(=C[N+](=O)[O-])NCCSCc1ccc(CN(C)C)o1 [RANITIDINE]"
numeric_readout = 1

[[record]]
compound = "CCCc1nc2c(C)cc(-c3nc4ccccc4n3C)cc2n1Cc1ccc(-c2ccccc2C(=O)O)cc1"
numeric_readout = 0.42

[[record]]
compound = "C[C@@H]1CN(c2c(F)c(N)c3c(=O)c(C(=O)O)cn(C4CC4)c3c2F)C[C@H](C)N1 [SPARFLOXACIN]"
numeric_readout = 0.88

[[record]]
compound = "CCCNC(=O)NS(=O)(=O)c1ccc(Cl)cc1 [CHLORPROPAMIDE]"
numeric_readout = 1

[[record]]
compound = "COCCc1ccc(OCC(O)CNC(C)C)cc1 (stereo not given) [METOPROLOL]"
numeric_readout = 1

[[record]]
compound = "O=C(CCCN1CCC(O)(c2ccc(Cl)cc2)CC1)c1ccc(F)cc1 [HALOPERIDOL]"
numeric_readout = 0.52

[[record]]
compound = "C=CCc1ccccc1OCC(O)CNC(C)C (stereo not given) [ALPRENOLOL]"
numeric_readout = 0.9

[[record]]
compound = "O=C(CCCN1CCC2(CC1)C(=O)NCN2c1ccccc1)c1ccc(F)cc1 [SPIPERONE]"
numeric_readout = 0.66

[[record]]
compound = "Cc1nccn1CC1CCc2c(c3ccccc3n2C)C1=O (stereo not given) [ONDANSETRON]"
numeric_readout = 0.94

[[record]]
compound = "CN(C)CCCC1(c2ccc(F)cc2)OCc2cc(C#N)ccc21 (stereo not given) [CITALOPRAM]"
numeric_readout = 0.81

[[record]]
compound = "O=C(O)c1cc(/N=N/c2ccc(S(=O)(=O)Nc3ccccn3)cc2)ccc1O [SULFASALAZINE]"
numeric_readout = 0.72

[[record]]
compound = "Fc1ccc([C@@H]2CCNC[C@H]2COc2ccc3c(c2)OCO3)cc1 [PAROXETINE]"
numeric_readout = 0.25

[[record]]
compound = "CCCCN1CCCCC1C(=O)Nc1c(C)cccc1C (stereo not given) [BUPIVACAINE]"
numeric_readout = 0.89

[[record]]
compound = "NC(=O)N1c2ccccc2C=Cc2ccccc21 [CARBAMAZEPINE]"
numeric_readout = 0.97

[[record]]
compound = "O=C1c2c(O)ccc(O)c2C(=O)c2c(NCCNCCO)ccc(NCCNCCO)c21 [MITOXANTRONE]"
numeric_readout = 0.13

[[record]]
compound = "CN/C(=N/CCSCc1nc[nH]c1C)NC#N [CIMETIDINE]"
numeric_readout = 1

[[record]]
compound = "CC(CN(C)C)CN1c2ccccc2CCc2ccccc21 (stereo not given) [TRIMIPRAMINE]"
numeric_readout = 0.4

[[record]]
compound = "Cc1ncc2n1-c1ccc(Cl)cc1C(c1ccccc1F)=NC2 [MIDAZOLAM]"
numeric_readout = 0.66

[[record]]
compound = "COc1ccc2c(c1)c(CC(=O)O)c(C)n2C(=O)c1ccc(Cl)cc1 [INDOMETHACIN]"
numeric_readout = 0.79


Where do these numbers come from? They come from ChEMBL document CHEMBL3232907.
